# SYSTEM: human c-Met (Homo sapiens)
# Construct: Recombinant GST-tagged cytosolic domains of human c-Met; 6xHis
# Sequence (P08581 956-1390 limits assumed): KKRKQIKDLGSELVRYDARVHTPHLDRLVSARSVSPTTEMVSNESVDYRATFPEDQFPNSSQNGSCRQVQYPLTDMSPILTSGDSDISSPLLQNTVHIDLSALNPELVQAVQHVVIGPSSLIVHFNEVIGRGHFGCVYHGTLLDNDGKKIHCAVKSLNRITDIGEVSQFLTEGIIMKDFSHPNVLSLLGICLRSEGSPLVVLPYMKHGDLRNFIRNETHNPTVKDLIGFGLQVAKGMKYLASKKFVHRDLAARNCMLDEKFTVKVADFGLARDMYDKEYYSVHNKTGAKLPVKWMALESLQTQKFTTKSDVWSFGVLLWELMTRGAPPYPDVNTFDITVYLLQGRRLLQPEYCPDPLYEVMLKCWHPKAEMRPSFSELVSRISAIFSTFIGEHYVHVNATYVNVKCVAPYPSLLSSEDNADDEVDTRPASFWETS
# ASSAY_REMARKS: in vitro kinase assay (homogeneous time-resolved tyrosine kinase assay, METKA)
# STATED_CONDITIONS: recombinant GST-tagged c-Met cytosolic domain, HTRF, 50 μM MgATP; read-out: Biological Activity (METKA IC50) Activity Code
pIC50: −log10 of the molar value.

{"columns": ["MOLECULE", "pIC50"],
 "data": [
  ["COCCOC(=O)Nc1ccc(OCc2nn(-c3cnn(C)c3)ccc2=O)cc1", "5.52 to 6.00"],
  ["COCCOc1cnc2ccc(OCc3nn(-c4cc(Cl)cc(C#N)c4)ccc3=O)cc2c1", "> 7.00"],
  ["CCOc1cnc2ccc(OCc3nn(-c4cnn(C)c4)ccc3=O)cc2c1", "> 7.00"],
  ["CCn1cc(-n2ccc(=O)c(COc3ccc4ncc(-c5ccc(OC)cc5)cc4c3)n2)cn1", "> 7.00"],
  ["Cn1cc(-n2ccc(=O)c(COc3ccc4ncc(OC5COC5)cc4c3)n2)cn1", "> 7.00"],
  ["COCCOc1ccnc2ccc(OCc3nn(-c4cnn(C)c4)ccc3=O)cc12", "6.00 to 7.00"],
  ["CCOC(=O)Nc1ccc(OCc2nn(-c3cnn(C)c3)ccc2=O)cc1", "6.00 to 7.00"],
  ["Cn1cc(-n2ccc(=O)c(COc3ccc4ncccc4c3)n2)cn1", "> 7.00"],
  ["Cn1cc(-n2ccc(=O)c(COc3ccc4ncc(NC(=O)OC(C)(C)C)cc4c3)n2)cn1", "> 7.00"],
  ["CC(Cc1nn(-c2cnn(C)c2)ccc1=O)c1ccc2ncccc2c1 (single isomer, unassigned) [Example 126]", "6.00 to 7.00"],
  ["CCOc1cnc2ccc(C(C)Oc3nn(-c4cnn(C)c4)ccc3=O)cc2c1 (single isomer, unassigned) [Example 141]", "> 7.00"],
  ["Cn1cc(-n2ccc(=O)c(COc3ccc4ncc(-n5ccnn5)cc4c3)n2)cn1", "> 7.00"],
  ["CC(Nc1nn(-c2cnn(C)c2)ccc1=O)c1ccc2ncccc2c1 (centres unmarked)", "> 7.00"],
  ["Cc1ccnc2ccc(OCc3nn(-c4cnn(C)c4)ccc3=O)cc12", "> 7.00"],
  ["CC(Oc1nn(-c2cnn(C)c2)ccc1=O)c1ccc2ncccc2c1 (single isomer, unassigned) [Example 138]", "6.00 to 7.00"],
  ["Cn1cc(-n2ccc(=O)c(COc3ccc4ncc(OCC5(C)COC5)cc4c3)n2)cn1", "> 7.00"],
  ["Cn1cc(-n2ccc(=O)c(COc3ccc4ncc(O)cc4c3)n2)cn1", "> 7.00"],
  ["O=c1ccn(-c2ccc(F)c(F)c2)nc1COc1ccc2ncccc2c1", "> 7.00"],
  ["Cn1cc(-c2cnc3ccc(COc4nn(-c5cnn(C)c5)ccc4=O)cc3c2)cn1", "> 7.00"],
  ["Cn1cc(-n2ccc(=O)c(CSc3ccc4ncccc4c3)n2)cn1", "> 7.00"],
  ["COc1ccnc2ccc(COc3nn(-c4cnn(C)c4)ccc3=O)cc12", "5.52 to 6.00"],
  ["CNC(=O)c1ccc(OCc2nn(-c3cnn(C)c3)ccc2=O)cc1", "6.00 to 7.00"],
  ["Cn1cc(-n2ccc(=O)c(COc3ccc4ncc(-c5cnn(C6COC6)c5)cc4c3)n2)cn1", "> 7.00"],
  ["CCn1cc(-n2ccc(=O)c(COc3ccc4ncc(-c5ccc(OC)nc5)cc4c3)n2)cn1", "> 7.00"],
  ["COCCOc1cnc2ccc(C(C)Oc3nn(-c4cnn(C)c4)ccc3=O)cc2c1 (single isomer, unassigned) [Example 144]", "6.00 to 7.00"],
  ["Cn1cc(-n2ccc(=O)c(COc3ccc4ncc(N)cc4c3)n2)cn1", "> 7.00"],
  ["CCn1cc(-n2ccc(=O)c(COc3ccc4ncc(-c5ccc(C(F)(F)F)cc5)cc4c3)n2)cn1", "> 7.00"],
  ["CC(C)COC(=O)Nc1ccc(OCc2nn(-c3cnn(C)c3)ccc2=O)cc1", "5.52 to 6.00"],
  ["Cn1cc(-n2ccc(=O)c(CCc3ccc(NCCCCO)cc3)n2)cn1", "6.00 to 7.00"]
]}
